# assay.info: ATG_NRF2_ARE_CIS: Attagene CIS-FACTORIAL HepG2 Assay for human Nuclear Factor Erythroid 2 Related Factor 2 (NFR2) response to Antioxidant Response Elements (ARE) (AID 2282992)
# experimental.conditions: HepG2 Attagene ARE/NRF2 reporter, transcription factor activity; actives raise or lower the signal
Calls of active or inactive are those of the source. The calls were made as follows: active = hit-call score of the fitted dose curve at least 0.9, where 1 is the maximum; inactive = score below 0.9.
Possible outcomes: active, inactive

{"columns": ["molecule", "assigned.class"],
 "data": [
  ["Fc1ccc(Br)cc1", "inactive"],
  ["CCN1CCCC1=O", "inactive"],
  ["CCCC(CC)c1ccccc1 (stereo not drawn)", "active"],
  ["Cc1ccc([N+](=O)[O-])cc1N", "inactive"],
  ["CC(C)(C)C1CCC(=O)CC1", "inactive"],
  ["c1ccc2cnccc2c1", "inactive"],
  ["O=C(OCCc1ccccc1)c1ccccc1", "inactive"],
  ["COc1cc(C)ccc1O", "active"],
  ["CCCCCCCCCCCC(=O)N(C)CC(=O)O", "active"],
  ["CCCCCCOC(=O)CCCCC(=O)OCCCCCC", "inactive"],
  ["Nc1ccnc(=O)[nH]1", "inactive"],
  ["C=Cc1cccc(C)c1", "inactive"],
  ["[Cl][Eu]([Cl])[Cl]", "inactive"],
  ["C=CC(=O)O[C@H]1C[C@@H]2CC[C@@]1(C)C2(C)C", "active"],
  ["C[N+](C)(C)CCCNS(=O)(=O)C(F)(F)C(F)(F)C(F)(F)C(F)(F)C(F)(F)C(F)(F)C(F)(F)C(F)(F)F", "inactive"],
  ["CCCCOC(=O)CCC(C)=O", "inactive"],
  ["CCCCCOC(=O)CCCCC", "inactive"],
  ["CC(=O)OC1CCCCC1C(C)(C)C (stereo not drawn)", "inactive"],
  ["CC(C)COC(=O)CC(C(=O)OCC(C)C)S(=O)(=O)O (stereo not drawn)", "inactive"],
  ["CCCCCCOc1ccc(N)cc1", "active"],
  ["[Cl][Sc]([Cl])[Cl]", "inactive"],
  ["Cc1cccc(C(C)(C)C)c1O", "inactive"],
  ["CC=C(C)C=CC=C(C)C", "active"],
  ["CC(=O)OC/C=C(/C)CCC=C(C)C", "inactive"],
  ["CCCCNC(=S)NCCCC", "inactive"],
  ["CC(C)c1cccc(C(C)C)c1N", "inactive"],
  ["CCOC(=O)c1ccccc1C", "inactive"],
  ["CC(=O)C(C)C", "inactive"],
  ["CC1(C)CCC[C@]2(C)[C@H]3CC(=O)O[C@]3(C)CC[C@@H]12", "active"],
  ["CC(CC(C)C)=NO", "inactive"],
  ["O=C(Cl)c1ccc(C(=O)Cl)cc1", "inactive"],
  ["CO[Si](C)(C)OC", "inactive"],
  ["CC(C)CC(=O)OCc1ccccc1", "inactive"],
  ["CCNc1nc(NC(C)(C)C)nc(OC)n1", "inactive"],
  ["CCC[Si](OC)(OC)OC", "inactive"],
  ["Cc1noc(NS(=O)(=O)c2ccc(N)cc2)c1C", "inactive"],
  ["O=C1c2ccccc2C(=O)c2cc(S(=O)(=O)O)ccc21", "active"],
  ["Nc1nc(N)nc(-c2ccccc2)n1", "inactive"],
  ["CN(C)Cc1cc(CN(C)C)c(O)c(CN(C)C)c1", "inactive"],
  ["C=C(C)C(=O)OCCOC(=O)C(=C)C", "inactive"],
  ["Cc1ccccc1CCO", "inactive"],
  ["CC(C)(C)N", "inactive"],
  ["CC(C)CCOCc1ccccc1", "inactive"],
  ["CCOC(=O)CC(=O)c1ccccc1", "inactive"],
  ["Cc1ccc(S(=O)(=O)N=C=O)cc1", "inactive"],
  ["Clc1cccnc1", "inactive"],
  ["NC(=O)Nc1ccccc1", "inactive"],
  ["Clc1cc(Cl)c(Cl)c(Cl)c1Cl", "inactive"]
]}

---

# tested.target: Estrogen receptor (Homo sapiens)
# assay.info: CCTE_Deisenroth_AIME_384WELL_LUC_Inactive: CCTE's 384-well Estrogen Receptor Transactivation Assay without AIME metabolic competence (ERTA luciferase; metabolism negative), Deisenroth Lab (AID 2284038);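 also: VM7Luc4E2 breast cells given medium preincubated 2 h with S9-free microspheres; hits raise estrogen receptor luciferase signal so potencies reflect agonists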
Inconclusive results are not listed. Activity calls are given as the source filed them. The calls were made as follows: active = hit-call score of the fitted dose curve at least 0.9, where 1 is the maximum; inconclusive = response in the unintended direction; inactive = score below 0.9. Peptide text beside a SMILES is read from it.
Possible outcomes: YES for active, NO for inactive

{"columns": ["compound", "tested.target", "assigned.class"],
 "data": [
  ["C[Si](C)(C)N[Si](C)(C)C", "Estrogen receptor (Homo sapiens)", "NO"],
  ["CC1=NN(c2ccc(S(=O)(=O)O)cc2)C(=O)C1N=Nc1ccccc1 (stereo not drawn)", "Estrogen receptor (Homo sapiens)", "NO"],
  ["O=c1c(O)c(-c2ccc(O)cc2O)oc2cc(O)cc(O)c12", "Estrogen receptor (Homo sapiens)", "YES"],
  ["O=S(=O)(O)c1ccc(N=Nc2c(O)ccc3ccccc23)cc1", "Estrogen receptor (Homo sapiens)", "NO"],
  ["CCCCCCCCC(CO)CCCCCC (stereo not drawn)", "Estrogen receptor (Homo sapiens)", "NO"],
  ["CO[Si](C)(C)OC", "Estrogen receptor (Homo sapiens)", "NO"],
  ["CCC(C)(O)CCCC(C)C (stereo not drawn)", "Estrogen receptor (Homo sapiens)", "NO"],
  ["CCCCCC(=O)OCC", "Estrogen receptor (Homo sapiens)", "NO"],
  ["O=C(O)C1CCC(C(=O)O)CC1 (stereo not drawn)", "Estrogen receptor (Homo sapiens)", "NO"],
  ["C=C[C@@]1(C)CC(=O)[C@]2(O)[C@@]3(C)[C@@H](O)CCC(C)(C)[C@@H]3[C@H](O)[C@H](OC(C)=O)[C@@]2(C)O1", "Estrogen receptor (Homo sapiens)", "NO"],
  ["CCCCNS(=O)(=O)c1ccc(C)cc1", "Estrogen receptor (Homo sapiens)", "NO"],
  ["O=C(O)CC(C(=O)O)S(=O)(=O)O (stereo not drawn)", "Estrogen receptor (Homo sapiens)", "NO"],
  ["CC1(C)[C@@H]2CC[C@@]1(C)C(=O)C2", "Estrogen receptor (Homo sapiens)", "NO"],
  ["O=C(O)c1ccc2c(c1)C(=O)OC2=O", "Estrogen receptor (Homo sapiens)", "NO"],
  ["CCOC(=O)C1=NOC(c2ccccc2)(c2ccccc2)C1", "Estrogen receptor (Homo sapiens)", "NO"],
  ["CCCCCCCCCCCCCCCCCCOS(=O)(=O)O", "Estrogen receptor (Homo sapiens)", "NO"],
  ["CCCCNS(=O)(=O)c1ccccc1", "Estrogen receptor (Homo sapiens)", "NO"],
  ["CC(=O)/C=C/C1C(C)=CCCC1(C)C (stereo not drawn)", "Estrogen receptor (Homo sapiens)", "NO"],
  ["CCCCCCOc1ccc(N)cc1", "Estrogen receptor (Homo sapiens)", "YES"],
  ["O=C(O)CCC(=O)O", "Estrogen receptor (Homo sapiens)", "NO"],
  ["COC(=O)[C@H](Cc1ccccc1)NC(=O)[C@@H](N)CC(=O)O (H-Asp-Phe-OMe)", "Estrogen receptor (Homo sapiens)", "NO"],
  ["O=C(Nc1ccccc1)c1cc(Cl)ccc1O", "Estrogen receptor (Homo sapiens)", "NO"],
  ["CCCCCCCCCC(C)=O", "Estrogen receptor (Homo sapiens)", "NO"],
  ["Nc1ccc(C(=O)O)cc1", "Estrogen receptor (Homo sapiens)", "NO"],
  ["C=CCOC(=O)c1ccc(C(=O)OCC=C)c(C(=O)OCC=C)c1", "Estrogen receptor (Homo sapiens)", "NO"],
  ["Cc1ccc([N+](=O)[O-])cc1N", "Estrogen receptor (Homo sapiens)", "NO"],
  ["CC(C)c1cc(C(C)C)cc(C(C)C)c1", "Estrogen receptor (Homo sapiens)", "NO"],
  ["C=C1C[C@H]2[C@@H]3C=C(C)C4=CC(=O)CC[C@]4(C)[C@H]3CC[C@]2(C)[C@@]1(OC(C)=O)C(C)=O", "Estrogen receptor (Homo sapiens)", "NO"]
]}

---

# tested.target: Peroxisome proliferator-activated receptor gamma (Homo sapiens) (UniProt P37231)
# Sequence (P37231 whole entry, looked up): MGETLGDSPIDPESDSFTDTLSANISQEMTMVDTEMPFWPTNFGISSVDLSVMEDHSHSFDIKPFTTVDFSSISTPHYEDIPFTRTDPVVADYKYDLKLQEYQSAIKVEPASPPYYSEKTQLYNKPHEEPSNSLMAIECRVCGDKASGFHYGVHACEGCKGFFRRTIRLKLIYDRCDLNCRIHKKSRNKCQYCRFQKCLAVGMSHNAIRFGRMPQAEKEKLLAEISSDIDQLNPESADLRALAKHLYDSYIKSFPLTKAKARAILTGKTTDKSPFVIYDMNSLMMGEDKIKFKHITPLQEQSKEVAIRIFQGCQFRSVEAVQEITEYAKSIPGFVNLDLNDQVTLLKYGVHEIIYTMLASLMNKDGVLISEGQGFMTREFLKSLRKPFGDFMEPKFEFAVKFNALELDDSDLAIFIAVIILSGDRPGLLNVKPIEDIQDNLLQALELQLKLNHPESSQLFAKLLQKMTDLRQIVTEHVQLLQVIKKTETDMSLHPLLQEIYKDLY
# assay.info: ATG_PPARg_TRANS: Attagene TRANS-FACTORIAL HepG2 Assay for human Peroxisome Proliferator-activated Receptor-gamma (PPARg) (AID 2283007)
Results filed as inconclusive are left out. Active and inactive are the calls of the source. Rule for the calls: active = hit-call score of the fitted dose curve at least 0.9, where 1 is the maximum; inconclusive = response in the unintended direction; inactive = score below 0.9.
Possible outcomes: active, inactive

{"columns": ["compound", "assigned.class"],
 "data": [
  ["Cn1cccc1", "inactive"],
  ["COC(=O)c1ccc(C(=O)OC)c(C(=O)OC)c1", "active"],
  ["CC(C=O)c1ccccc1 (stereo not drawn)", "inactive"],
  ["CC(=O)c1ccc(S(=O)(=O)NC(=O)NC2CCCCC2)cc1", "inactive"],
  ["N=C1C=CC(=C(c2ccc(N)cc2)c2ccc(N)cc2)C=C1", "active"],
  ["Nc1ccc(O)c([N+](=O)[O-])c1", "inactive"],
  ["CCCCCCOC(=O)CCCCC(=O)OCCCCCC", "inactive"],
  ["O=C(O)C(F)(F)C(F)(F)C(F)(F)C(F)(F)C(=O)O", "inactive"],
  ["CCOC(=O)C1=NOC(c2ccccc2)(c2ccccc2)C1", "active"],
  ["c1ccc2c(c1)[nH]c1ccccc12", "inactive"],
  ["C=Cc1ccc(OC(C)=O)cc1", "inactive"],
  ["C=CCCCCCCCCO", "inactive"],
  ["CCCCc1ccc(Cl)cc1", "inactive"],
  ["CCc1cccc(C)c1N(C(=O)CS(=O)(=O)O)C(C)COC (stereo not drawn)", "inactive"],
  ["O=S(=O)(O)c1ccc(N=Nc2c(O)ccc3ccccc23)cc1", "inactive"],
  ["O=C(Cl)c1c(Cl)c(Cl)c(C(=O)Cl)c(Cl)c1Cl", "inactive"],
  ["O=S(=O)(O)c1ccc(Nc2nc(Nc3ccc(C=Cc4ccc(Nc5nc(Nc6ccc(S(=O)(=O)O)cc6)nc(N(CCO)CCO)n5)cc4S(=O)(=O)O)c(S(=O)(=O)O)c3)nc(N(CCO)CCO)n2)cc1", "inactive"],
  ["NNS(=O)(=O)c1ccc(Oc2ccc(S(=O)(=O)NN)cc2)cc1", "inactive"],
  ["C=CC(=O)NCOCCCC", "active"],
  ["C1CCSC1", "inactive"],
  ["O=C(OCc1ccccc1)c1ccc(O)cc1", "active"],
  ["C=CCNCC=C", "inactive"],
  ["CCC(C)N (stereo not drawn)", "inactive"],
  ["CC(C)COC(=O)CC(C(=O)OCC(C)C)S(=O)(=O)O (stereo not drawn)", "active"],
  ["C=CC(=O)OCCCCCCCCCC", "active"],
  ["COC(Cc1ccccc1)OC", "inactive"],
  ["c1ccc2cnccc2c1", "inactive"],
  ["CCCCOCCOC(=O)COc1ccc(Cl)cc1Cl", "inactive"]
]}

Taken from PubChem BioAssay (EPA / NIEHS).
